Test Name: Pharmacokinetics in plasma after single s.c. dose, alone or in combination
Assay type: in vivo, male Sprague-Dawley rats
Conditions: male, Sprague-Dawley, rat, in vivo, sc, 10 mg/kg, Plasma concentration
Measurement Kind: concentration at 30 min (ng/mL)
Return type: number; implicit unit ng/mL.

Query block: Fill blank: measured concentration at 30 min of the compound "CC(C)COc1ccc(CNC(=O)N(Cc2ccc(F)cc2)C2CCN(C)CC2)cc1" is ____.
Result block: 190

----------
Test Name: Pharmacokinetics in plasma after single s.c. dose, alone or in combination
Type: in vivo, male Sprague-Dawley rats
Conditions: male, Sprague-Dawley, rat, in vivo, sc, 10 mg/kg, Plasma concentration
Measurement Kind: concentration at 240 min
Entry format: amount then unit.

Query block: Fill blank: measured concentration at 240 min of the compound "CC(C)COc1ccc(CNC(=O)N(Cc2ccc(F)cc2)C2CCN(C)CC2)cc1" is ____.
Result block: 116 ng/mL

----------
Test Name: Pharmacokinetics in plasma after single s.c. dose, alone or in combination
Format: in vivo, male Sprague-Dawley rats
Conditions: male, Sprague-Dawley, rat, in vivo, sc, 10 mg/kg, Plasma concentration
Measurement Kind: concentration at 120 min

Query block: Fill blank: measured concentration at 120 min of the compound "CC(C)COc1ccc(CNC(=O)N(Cc2ccc(F)cc2)C2CCN(C)CC2)cc1" is ____.
Result block: 0.179 µg/mL

----------
Test Name: Pharmacokinetics in plasma after single s.c. dose, alone or in combination
Format: in vivo, male Sprague-Dawley rats
Conditions: male, Sprague-Dawley, rat, in vivo, sc, 3 mg/kg, AUC0-inf
Measurement Kind: AUC0-inf (ng·h/mL)
Return type: number; implicit unit ng·h/mL.

Query block: Fill blank: measured AUC0-inf of the molecule CC(C)COc1ccc(CNC(=O)N(Cc2ccc(F)cc2)C2CCN(C)CC2)cc1 [Pimavanserin] is ____.
Result block: 198

----------
Test Name: Pharmacokinetics in plasma after single s.c. dose, alone or in combination
Type: in vivo, male Sprague-Dawley rats
Conditions: male, Sprague-Dawley, rat, in vivo, sc, 3 mg/kg, Plasma concentration
Measurement Kind: concentration at 240 min (ng/mL)
Return type: number; implicit unit ng/mL.

Query block: Fill blank: measured concentration at 240 min of the compound "CC(C)COc1ccc(CNC(=O)N(Cc2ccc(F)cc2)C2CCN(C)CC2)cc1" is ____.
Result block: 15.7

----------
Test Name: Pharmacokinetics in plasma after single s.c. dose, alone or in combination
Type: in vivo, male Sprague-Dawley rats
Conditions: male, Sprague-Dawley, rat, in vivo, sc, 10 mg/kg, Plasma concentration
Measurement Kind: concentration at 0 h
Entry format: amount then unit.

Query block: Fill blank: measured concentration at 0 h of the compound "CC(C)COc1ccc(CNC(=O)N(Cc2ccc(F)cc2)C2CCN(C)CC2)cc1" is ____.
Result block: 0.09 ng/mL

----------
Test Name: Pharmacokinetics in plasma after single s.c. dose, alone or in combination
Format: in vivo, male Sprague-Dawley rats
Conditions: male, Sprague-Dawley, rat, in vivo, sc, 3 mg/kg, Plasma concentration
Measurement Kind: concentration at 30 min (ng/mL)
Return type: number; implicit unit ng/mL.

Query block: Fill blank: measured concentration at 30 min of the compound CC(C)COc1ccc(CNC(=O)N(Cc2ccc(F)cc2)C2CCN(C)CC2)cc1 [Pimavanserin] is ____.
Result block: 74.5

----------
Test Name: Pharmacokinetics in plasma after single s.c. dose, alone or in combination
Assay type: in vivo, male Sprague-Dawley rats
Conditions: male, Sprague-Dawley, rat, in vivo, sc, 10 mg/kg, Plasma concentration
Measurement Kind: concentration at 360 min

Query block: Fill blank: measured concentration at 360 min of the compound CC(C)COc1ccc(CNC(=O)N(Cc2ccc(F)cc2)C2CCN(C)CC2)cc1 [Pimavanserin] is ____.
Result block: 79.9 ng/mL

----------
Test Name: Pharmacokinetics in plasma after single s.c. dose, alone or in combination
Assay type: in vivo, male Sprague-Dawley rats
Conditions: male, Sprague-Dawley, rat, in vivo, sc, 3 mg/kg, Plasma concentration
Measurement Kind: concentration at 60 min
Entry format: amount then unit.

Query block: Fill blank: measured concentration at 60 min of the molecule CC(C)COc1ccc(CNC(=O)N(Cc2ccc(F)cc2)C2CCN(C)CC2)cc1 [Pimavanserin] is ____.
Result block: 63.4 ng/mL

----------
Test Name: Pharmacokinetics in plasma after single s.c. dose, alone or in combination
Assay type: in vivo, male Sprague-Dawley rats
Conditions: male, Sprague-Dawley, rat, in vivo, sc, 3 mg/kg, Plasma concentration
Measurement Kind: concentration at 15 min

Query block: Fill blank: measured concentration at 15 min of the molecule "CC(C)COc1ccc(CNC(=O)N(Cc2ccc(F)cc2)C2CCN(C)CC2)cc1" is ____.
Result block: 71.1 ng/mL

----------
Test Name: Pharmacokinetics in plasma after single s.c. dose, alone or in combination
Format: in vivo, male Sprague-Dawley rats
Conditions: male, Sprague-Dawley, rat, in vivo, sc, 10 mg/kg, AUC0-inf
Measurement Kind: AUC0-inf (ng·h/mL)
Return type: number; implicit unit ng·h/mL.

Query block: Fill blank: measured AUC0-inf of the molecule CC(C)COc1ccc(CNC(=O)N(Cc2ccc(F)cc2)C2CCN(C)CC2)cc1 [Pimavanserin] is ____.
Result block: 1290

----------
Test Name: Pharmacokinetics in plasma after single s.c. dose, alone or in combination
Format: in vivo, male Sprague-Dawley rats
Conditions: male, Sprague-Dawley, rat, in vivo, sc, 3 mg/kg, AUC0-t
Measurement Kind: AUC0-t (ng·h/mL)
Return type: number; implicit unit ng·h/mL.

Query block: Fill blank: measured AUC0-t of the compound "CC(C)COc1ccc(CNC(=O)N(Cc2ccc(F)cc2)C2CCN(C)CC2)cc1" is ____.
Result block: 189

----------
Test Name: Pharmacokinetics in plasma after single s.c. dose, alone or in combination
Type: in vivo, male Sprague-Dawley rats
Conditions: male, Sprague-Dawley, rat, in vivo, sc, 3 mg/kg, Plasma concentration
Measurement Kind: concentration at 0 h (ng/mL)
Return type: number; implicit unit ng/mL.

Query block: Fill blank: measured concentration at 0 h of the compound "CC(C)COc1ccc(CNC(=O)N(Cc2ccc(F)cc2)C2CCN(C)CC2)cc1" is ____.
Result block: 0.02

----------
Test Name: Pharmacokinetics in plasma after single s.c. dose, alone or in combination
Type: in vivo, male Sprague-Dawley rats
Conditions: male, Sprague-Dawley, rat, in vivo, sc, 3 mg/kg, CMAX
Measurement Kind: Cmax (ng/mL)
Return type: number; implicit unit ng/mL.

Query block: Fill blank: measured Cmax of the compound "CC(C)COc1ccc(CNC(=O)N(Cc2ccc(F)cc2)C2CCN(C)CC2)cc1" is ____.
Result block: 79.5

----------
Test Name: Pharmacokinetics in plasma after single s.c. dose, alone or in combination
Assay type: in vivo, male Sprague-Dawley rats
Conditions: male, Sprague-Dawley, rat, in vivo, sc, 10 mg/kg, TMAX
Measurement Kind: Tmax (min)
Return type: number; implicit unit min.

Query block: Fill blank: measured Tmax of the compound CC(C)COc1ccc(CNC(=O)N(Cc2ccc(F)cc2)C2CCN(C)CC2)cc1 [Pimavanserin] is ____.
Result block: 57.6

----------
Test Name: Pharmacokinetics in plasma after single s.c. dose, alone or in combination
Assay type: in vivo, male Sprague-Dawley rats
Conditions: male, Sprague-Dawley, rat, in vivo, sc, 3 mg/kg, Plasma concentration
Measurement Kind: concentration at 180 min (ng/mL)
Return type: number; implicit unit ng/mL.

Query block: Fill blank: measured concentration at 180 min of the compound "CC(C)COc1ccc(CNC(=O)N(Cc2ccc(F)cc2)C2CCN(C)CC2)cc1" is ____.
Result block: 27.8

----------
Test Name: Pharmacokinetics in plasma after single s.c. dose, alone or in combination
Assay type: in vivo, male Sprague-Dawley rats
Conditions: male, Sprague-Dawley, rat, in vivo, sc, 10 mg/kg, CMAX
Measurement Kind: Cmax (ng/mL)
Return type: number; implicit unit ng/mL.

Query block: Fill blank: measured Cmax of the compound "CC(C)COc1ccc(CNC(=O)N(Cc2ccc(F)cc2)C2CCN(C)CC2)cc1" is ____.
Result block: 213

----------
Test Name: Pharmacokinetics in plasma after single s.c. dose, alone or in combination
Type: in vivo, male Sprague-Dawley rats
Conditions: male, Sprague-Dawley, rat, in vivo, sc, 10 mg/kg, Cl/F
Measurement Kind: CL/F (mL/min/kg)
Return type: number; implicit unit mL/min/kg.

Query block: Fill blank: measured CL/F of the molecule "CC(C)COc1ccc(CNC(=O)N(Cc2ccc(F)cc2)C2CCN(C)CC2)cc1" is ____.
Result block: 135

----------
Test Name: Pharmacokinetics in plasma after single s.c. dose, alone or in combination
Type: in vivo, male Sprague-Dawley rats
Conditions: male, Sprague-Dawley, rat, in vivo, sc, 3 mg/kg, Half-life, t1/2
Measurement Kind: half-life (h)
Return type: number; implicit unit h.

Query block: Fill blank: measured half-life of the compound "CC(C)COc1ccc(CNC(=O)N(Cc2ccc(F)cc2)C2CCN(C)CC2)cc1" is ____.
Result block: 1.18
